# assayed target: T1, recombinant human regenerating islet-derived protein 1α (REG1A) (human, UniProt P05451 23-166, limits assumed)
# T1 construct: also called recombinant human REG1A; recombinant REG1A
# T1 sequence (looked up): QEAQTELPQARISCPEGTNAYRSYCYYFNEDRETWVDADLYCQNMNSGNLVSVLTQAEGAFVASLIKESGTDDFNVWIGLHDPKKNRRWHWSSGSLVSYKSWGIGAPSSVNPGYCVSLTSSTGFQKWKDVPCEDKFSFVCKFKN
# test description: sandwich ELISA; capture 25F3C4; REG1A 11.11 ng/mL
property measured: OD value (OD)
Kindly answer with a numeric value in OD, unit omitted.

# return recorded OD value for input antibody 4H8F1 (antibody, V domains shown, Mouse monoclonal from hybridoma, stated mouse IgG1/Kappa; also called 4H8F1-biotin; Antibody 1) VH: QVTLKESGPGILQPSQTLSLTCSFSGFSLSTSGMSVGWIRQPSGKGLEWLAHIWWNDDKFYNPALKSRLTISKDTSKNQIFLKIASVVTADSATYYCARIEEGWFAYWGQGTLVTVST VL: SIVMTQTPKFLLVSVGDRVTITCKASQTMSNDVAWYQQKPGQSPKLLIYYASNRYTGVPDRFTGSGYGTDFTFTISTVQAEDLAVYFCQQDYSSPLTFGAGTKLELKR
0.078

Please give the documented OD value of antibody 12F12A10 (antibody, V domains shown, Mouse monoclonal from hybridoma, stated mouse IgG1/Kappa; also called 12F12A10-biotin; Antibody 2) VH: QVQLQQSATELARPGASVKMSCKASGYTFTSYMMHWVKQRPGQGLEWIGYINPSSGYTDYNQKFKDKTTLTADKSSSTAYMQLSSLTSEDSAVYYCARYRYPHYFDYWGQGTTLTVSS VL: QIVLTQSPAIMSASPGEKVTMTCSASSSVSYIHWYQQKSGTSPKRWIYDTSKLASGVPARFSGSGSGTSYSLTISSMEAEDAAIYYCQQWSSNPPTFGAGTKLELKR
4.37

Complete the entry with OD value for antibody 11D11B11 (antibody, mouse IgG2a, kappa, V domains shown, Mouse monoclonal from hybridoma, stated mouse IgG1/Kappa; Used unlabelled as capture and biotin-labelled as detection antibody; also called 11D11B11-biotin) VH: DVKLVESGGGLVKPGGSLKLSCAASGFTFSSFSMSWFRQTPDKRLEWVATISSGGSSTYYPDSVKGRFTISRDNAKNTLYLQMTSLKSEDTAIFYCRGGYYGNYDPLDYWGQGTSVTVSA VL: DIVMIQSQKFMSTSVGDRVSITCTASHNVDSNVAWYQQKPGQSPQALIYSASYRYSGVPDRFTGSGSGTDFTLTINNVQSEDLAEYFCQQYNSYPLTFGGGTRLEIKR
0.079

# return recorded OD value for input antibody 21B11D2 (antibody, mouse IgG2b, kappa, V domains shown, Mouse monoclonal from hybridoma, stated mouse IgG1/Kappa; Used unlabelled as capture and biotin-labelled as detection antibody; also called 21B11D2-biotin) VH: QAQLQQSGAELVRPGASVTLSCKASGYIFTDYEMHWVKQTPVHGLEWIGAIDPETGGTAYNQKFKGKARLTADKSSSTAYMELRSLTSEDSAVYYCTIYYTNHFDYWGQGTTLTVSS VL: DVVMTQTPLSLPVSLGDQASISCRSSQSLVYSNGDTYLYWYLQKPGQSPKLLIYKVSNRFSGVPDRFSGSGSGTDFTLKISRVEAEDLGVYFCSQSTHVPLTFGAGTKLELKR
0.069
